Biological target: human SSTR2 (Homo sapiens)
Construct: expressed in transfected cells; host or cells: CHO-K1 cells and CCL39 cells
Sequence (P30874 whole entry): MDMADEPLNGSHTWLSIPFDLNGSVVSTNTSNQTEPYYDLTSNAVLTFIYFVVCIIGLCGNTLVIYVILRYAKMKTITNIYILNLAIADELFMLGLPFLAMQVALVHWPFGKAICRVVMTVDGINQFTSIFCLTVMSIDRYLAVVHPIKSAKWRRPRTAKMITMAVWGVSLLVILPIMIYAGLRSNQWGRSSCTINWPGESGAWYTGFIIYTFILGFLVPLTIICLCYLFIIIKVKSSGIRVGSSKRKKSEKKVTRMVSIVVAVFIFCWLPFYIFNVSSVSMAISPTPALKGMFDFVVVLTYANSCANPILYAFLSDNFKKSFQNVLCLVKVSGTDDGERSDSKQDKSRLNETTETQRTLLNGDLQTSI
Assay: Displacement of 125I-[Leu8,D-Trp22,Tyr25]-somatostatin-28 from cloned SSTR2 (receptor autoradiography on membrane pellets)
Type: binding
Details: inhibition of 125I-[Leu8,D-Trp22,Tyr24]SRIF-28 binding, cloned receptor; read-out: IC50 (nM) mSSTR2
measurement.type: IC50

compound="C[C@@H](O)[C@@H]1NC(=O)[C@H](CCCCN)NC(=O)[C@@H](N(C)C(=O)c2ccc3ccccc3c2)NC(=O)[C@H](Cc2ccc(O)cc2)NC(=O)[C@H](Cc2ccccc2)NC(=O)[C@H](N)CSSC[C@@H](C(=O)O)NC(=O)[C@H](Cc2ccccc2)NC1=O [Peptide No. 2A]" value="> 10000 nM"
compound="C[C@@H](O)[C@@H]1NC(=O)[C@H](CCCCN)NC(=O)[C@@H](N(C)C(=O)c2ccc3ccccc3c2)NC(=O)[C@H](Cc2ccccc2)NC(=O)[C@H](Cc2ccccc2)NC(=O)[C@H](N)CSSC[C@@H](C(=O)O)NC(=O)[C@H](Cc2ccccc2)NC1=O [Peptide No. 2D]" value="> 10000 nM"
compound="C[C@@H](O)[C@@H]1NC(=O)[C@H](CCCCN)NC(=O)[C@@H](N(C)C(=O)c2ccc3ccccc3c2)NC(=O)[C@H](Cc2ccc(O)cc2)NC(=O)[C@H](Cc2ccccc2)NC(=O)[C@H](NC(N)=O)CSSC[C@@H](C(=O)O)NC(=O)[C@H](Cc2ccccc2)NC1=O [Peptide No. 2F]" value="> 10000 nM"
compound="C[C@@H](O)[C@@H]1NC(=O)[C@H](CCCCN)NC(=O)[C@@H](N(C)C(=O)c2ccc3ccccc3c2)NC(=O)[C@H](Cc2ccc(Cl)cc2)NC(=O)[C@H](Cc2ccccc2)NC(=O)[C@@H](N)CSSC[C@@H](C(=O)O)NC(=O)[C@H](Cc2ccccc2)NC1=O [Peptide No. 2C]" value="> 1000 nM"

---

Target: human SSTR3 (Homo sapiens)
Construct: expressed in transfected cells; host or cells: CHO-K1 cells and CCL39 cells
Sequence (P32745 whole entry): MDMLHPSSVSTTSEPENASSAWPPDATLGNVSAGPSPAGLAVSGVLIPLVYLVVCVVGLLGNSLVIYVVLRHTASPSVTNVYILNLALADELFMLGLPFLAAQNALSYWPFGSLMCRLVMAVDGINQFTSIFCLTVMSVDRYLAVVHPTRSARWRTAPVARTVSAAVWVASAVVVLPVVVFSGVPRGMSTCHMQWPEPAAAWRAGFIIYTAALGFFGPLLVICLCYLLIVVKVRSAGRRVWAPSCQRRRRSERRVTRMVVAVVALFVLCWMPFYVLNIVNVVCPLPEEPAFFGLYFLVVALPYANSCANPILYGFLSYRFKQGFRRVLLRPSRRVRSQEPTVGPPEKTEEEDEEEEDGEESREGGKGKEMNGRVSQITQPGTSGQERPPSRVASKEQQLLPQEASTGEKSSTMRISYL
Test: Displacement of 125I-[Leu8,D-Trp22,Tyr25]-somatostatin-28 from cloned SSTR3 (receptor autoradiography on membrane pellets)
Assay type: binding
Details: inhibition of 125I-[Leu8,D-Trp22,Tyr24]SRIF-28 binding, cloned receptor; read-out: IC50 (nM) mSSTR3
measurement.type: IC50 (nM)

molecule="C[C@@H](O)[C@@H]1NC(=O)[C@H](CCCCN)NC(=O)[C@@H](N(C)C(=O)c2ccc3ccccc3c2)NC(=O)[C@H](Cc2ccc(O)cc2)NC(=O)[C@H](Cc2ccccc2)NC(=O)[C@@H](N)CSSC[C@@H](C(=O)O)NC(=O)[C@H](Cc2ccccc2)NC1=O [Peptide No. 2]" value=70
molecule="C[C@@H](O)[C@@H]1NC(=O)[C@H](CCCCN)NC(=O)[C@@H](N(C)C(=O)c2ccc3ccccc3c2)NC(=O)[C@H](Cc2ccc(O)cc2)NC(=O)[C@H](Cc2ccccc2)NC(=O)[C@H](N)CSSC[C@@H](C(=O)O)NC(=O)[C@H](Cc2ccccc2)NC1=O [Peptide No. 2A]" value=39
molecule="C[C@@H](O)[C@@H]1NC(=O)[C@H](CCCCN)NC(=O)[C@@H](N(C)C(=O)c2ccc3ccccc3c2)NC(=O)[C@H](Cc2ccccc2)NC(=O)[C@H](Cc2ccccc2)NC(=O)[C@H](N)CSSC[C@@H](C(=O)O)NC(=O)[C@H](Cc2ccccc2)NC1=O [Peptide No. 2D]" value=115
molecule="C[C@@H](O)[C@@H]1NC(=O)[C@H](CCCCN)NC(=O)[C@@H](Cc2ccc3ccccc3c2)NC(=O)[C@H](N(C)C(=O)c2ccccc2)NC(=O)[C@H](Cc2ccccc2)NC(=O)[C@@H](N)CSSC[C@@H](C(=O)O)NC(=O)[C@H](Cc2ccccc2)NC1=O [Peptide No. 3]" value=80
molecule="C[C@@H](O)[C@@H]1NC(=O)[C@H](CCCCN)NC(=O)[C@@H](N(C)C(=O)c2ccc3ccccc3c2)NC(=O)[C@H](Cc2ccccc2)NC(=O)[C@H](Cc2ccccc2)NC(=O)[C@@H](N)CSSC[C@@H](C(=O)O)NC(=O)[C@H](Cc2ccccc2)NC1=O [Peptide No. 2B]" value=70
molecule="C[C@@H](O)[C@@H]1NC(=O)[C@H](CCCCN)NC(=O)[C@@H](N(C)C(=O)c2ccc3ccccc3c2)NC(=O)[C@H](Cc2ccc(O)cc2)NC(=O)[C@H](Cc2ccccc2)NC(=O)[C@H](NC(N)=O)CSSC[C@@H](C(=O)O)NC(=O)[C@H](Cc2ccccc2)NC1=O [Peptide No. 2F]" value=6.7
molecule="C[C@@H](O)[C@@H]1NC(=O)[C@H](CCCCN)NC(=O)[C@@H](N(C)C(=O)c2ccc3ccccc3c2)NC(=O)[C@H](Cc2ccc(Cl)cc2)NC(=O)[C@H](Cc2ccccc2)NC(=O)[C@@H](N)CSSC[C@@H](C(=O)O)NC(=O)[C@H](Cc2ccccc2)NC1=O [Peptide No. 2C]" value=300
molecule="C[C@@H](O)[C@@H]1NC(=O)[C@H](CCCCN)NC(=O)[C@@H](N(C)C(=O)c2ccc3ccccc3c2)NC(=O)[C@H](Cc2ccc(Cl)cc2)NC(=O)[C@H](Cc2ccccc2)NC(=O)[C@H](N)CSSC[C@@H](C(=O)O)NC(=O)[C@H](Cc2ccccc2)NC1=O [Peptide No. 2E]" value=180
